# System: Fibroblast
# assay.text: Multiplex assay against human fibroblast
# Assay type: toxicity, cell-based
# assay.context: 48 h, 1 µM, compound concentration 1 uM, replicate 2
readout.type: Population Hoechst High Intensity Objects (%)
Unit % implied. Number only.

CN(C)c1ccnc2sc3c(=O)n(N4CCCCCC4)cnc3c12; 3
O=C(NCC(=O)N1CC[C@H](N[C@H]2CC[C@@](O)(c3ccc(-c4ncccn4)cn3)CC2)C1)c1cccc(C(F)(F)F)c1; 4
CC(=O)NCCc1c(Cc2ccccc2)[nH]c2ccccc12; 8

Supply recorded Population Hoechst High Intensity Objects (%) for `CCNC1(C(N)=O)CCN(c2ncnc3c2nc(-c2ccccc2Cl)n3-c2ccc(Cl)cc2)CC1` here.
5

Tell me Population Hoechst High Intensity Objects (%) reported for `O=C1COc2nccc(-c3ccccc3F)c2CN1Cc1cc(C(F)(F)F)cc(C(F)(F)F)c1`
6

Annotate the compound `CCCn1c(=O)c2[nH]c(C3CCCC3)nc2n(CCC)c1=O` with its measured Population Hoechst High Intensity Objects (%).
7

State its Population Hoechst High Intensity Objects (%) for this compound: `CC(C)(C)c1ccc(S(=O)(=O)Nc2ccc(Cl)cc2C(=O)c2cc[n+]([O-])cc2)cc1`
6

Kindly indicate its recorded Population Hoechst High Intensity Objects (%). Item: `Cc1nc2ccc(Oc3ccc(F)cc3)cc2c(=O)n1C[C@H]1CCCN(C(C)C)C1.Cl`
5

Item `c1cc(OCCCN2CCCCC2)ccc1CN1CCCCC1` : provide Population Hoechst High Intensity Objects (%)
4
